Reference source: patent US20240132624A1

# MEASUREMENT_TARGET: T1, human FcRn/b2M (human, UniProt P61769 21-119, biotinylated)
# T1 construct: bought recombinant biotinylated protein (ACRO FCM-H82W4 or Immunitrack ITF01); also called hFcRn; hFcRn/hb2M
# T1 sequence (chain, as listed by the source limits assumed, chain 1 of 2): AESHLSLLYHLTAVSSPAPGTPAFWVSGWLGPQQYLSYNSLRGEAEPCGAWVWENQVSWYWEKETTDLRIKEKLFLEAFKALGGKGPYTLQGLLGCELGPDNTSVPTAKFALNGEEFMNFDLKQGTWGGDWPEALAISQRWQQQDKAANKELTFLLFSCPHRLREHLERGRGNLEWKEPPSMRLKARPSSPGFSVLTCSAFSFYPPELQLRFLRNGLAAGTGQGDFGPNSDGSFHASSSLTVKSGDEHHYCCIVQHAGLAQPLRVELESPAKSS
# T1 sequence (P61769 21-119 limits assumed, chain 2 of 2): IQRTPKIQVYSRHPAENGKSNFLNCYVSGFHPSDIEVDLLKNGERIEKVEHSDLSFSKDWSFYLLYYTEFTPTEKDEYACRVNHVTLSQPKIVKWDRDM
# PROCEDURE_SUMMARY: SPR pH 7.4;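 further: surface plasmon resonance kinetics, periplasmic extracts diluted 1:10 flowed over immobilized target at 25 °C, 120 s association then 600–3600 s dissociation, buffer with 150 mM NaCl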
RESULT_TYPE: koff (s⁻¹)

BINDER: T0263018B11 S101W (VHH, name in Kabat numbering, FLAG3-His6 tagged) VHH: EVQLVESGGGVVQPGGSLRLSCAASGFTFSSYAMYWVRQAPGKGLEWVSAISSGGGSTDYADSVKGRFTISRDNSKNTLYLQMNSLRPEDTALYYCAADTLYTSLTWYWYWGQGTLVTVSS
RECORDED_VALUE: 0.0012
--
BINDER: T0263018B11 T96V (VHH, name in Kabat numbering, FLAG3-His6 tagged) VHH: EVQLVESGGGVVQPGGSLRLSCAASGFTFSSYAMYWVRQAPGKGLEWVSAISSGGGSTDYADSVKGRFTISRDNSKNTLYLQMNSLRPEDTALYYCAADVLYTSLTWYSYWGQGTLVTVSS
RECORDED_VALUE: 0.021
--
BINDER: T0263018B11 S101E (VHH, name in Kabat numbering, FLAG3-His6 tagged) VHH: EVQLVESGGGVVQPGGSLRLSCAASGFTFSSYAMYWVRQAPGKGLEWVSAISSGGGSTDYADSVKGRFTISRDNSKNTLYLQMNSLRPEDTALYYCAADTLYTSLTWYEYWGQGTLVTVSS
RECORDED_VALUE: 0.0078
--
BINDER: T0263018B11 W100cV (VHH, name in Kabat numbering, FLAG3-His6 tagged) VHH: EVQLVESGGGVVQPGGSLRLSCAASGFTFSSYAMYWVRQAPGKGLEWVSAISSGGGSTDYADSVKGRFTISRDNSKNTLYLQMNSLRPEDTALYYCAADTLYTSLTVYSYWGQGTLVTVSS
RECORDED_VALUE: 0.5
